MFI (solvent ratio) overview
molecular target: T1, HLA-A*02:01 (human); assay: T2-A24 MHC class I stabilization, flow cytometry, anti-HLA-A02 BB7.2-FITC, peptide 100 ug/mL
T1 construct: whole, on cells; Empty class I molecule on TAP-deficient T2-A24 cells; detected with anti-HLA-A02 antibody BB7.2

The examples below pair each entry with its known result.
# binder, reading
rows = [
    ("CYQLLLNHGA [As307_10]", "2.5 ratio to solvent"),
    ("AIPLLSLPL [As403_9]", "0.9 ratio to solvent"),
]

MFI (solvent ratio) recorded for this binder, QYVLKVTSV [As290_9] , is 1 ratio to solvent

MFI (solvent ratio) recorded for this binder, TLMHLSRCAI [As383_10_5L] , is 2.4 ratio to solvent

MFI (solvent ratio) recorded for this binder, FEVEDENMVL [As48_10] , is 1 ratio to solvent
